IC50 for assorted compounds
# target_system: 26S proteasome non-ATPase regulatory subunit 14 (Homo sapiens)
# Sequence (O00487 whole entry): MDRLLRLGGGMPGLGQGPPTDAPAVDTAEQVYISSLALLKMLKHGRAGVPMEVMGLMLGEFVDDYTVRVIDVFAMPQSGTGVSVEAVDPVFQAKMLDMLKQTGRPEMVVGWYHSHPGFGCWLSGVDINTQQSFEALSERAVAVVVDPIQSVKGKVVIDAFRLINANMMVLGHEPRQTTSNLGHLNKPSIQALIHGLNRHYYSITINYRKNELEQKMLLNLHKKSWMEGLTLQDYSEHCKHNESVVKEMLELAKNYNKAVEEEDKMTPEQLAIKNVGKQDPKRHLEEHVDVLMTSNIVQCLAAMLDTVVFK
# experimental_protocol: Inhibition of 26S proteasome regulatory subunit RPN11 deubiquitinating activity in human erythrocytes using Ub4-pepOG protein substrate preincubated for 1 hr followed by substrate addition measured after 80 mins by fluorescence polarization assay

{"compound": "Sc1cccc2cccnc12", "IC50": "2500 to 2800 nM"}
{"compound": "O=C(O)c1ccnc2c(SSc3cccc4c(C(=O)O)ccnc34)cccc12", "IC50": "1300 nM"}
{"compound": "Cc1cc(S)c2ncccc2c1", "IC50": "900 nM"}
{"compound": "O=C(NCc1ccc(F)cc1)c1cnc2c(SSc3cccc4cc(C(=O)NCc5ccc(F)cc5)cnc34)cccc2c1", "IC50": "< 200 nM"}
{"compound": "O=C(NCCc1nccs1)c1cnc2c(O)cccc2c1", "IC50": "> 40000 nM"}
{"compound": "COc1ccc(CNC(=O)c2cnc3c(SSc4cccc5cc(C(=O)NCc6ccc(OC)cc6)cnc45)cccc3c2)cc1", "IC50": "< 200 nM"}
{"compound": "O=C(NCc1ccccn1)c1cnc2c(SSc3cccc4cc(C(=O)NCc5ccccn5)cnc34)cccc2c1", "IC50": "4000 nM"}
{"compound": "O=C(NCCc1nccs1)c1ccc2c(SSc3cccc4nc(C(=O)NCCc5nccs5)ccc34)cccc2n1", "IC50": "> 100000 nM"}
{"compound": "COC(=O)CNC(=O)c1cnc2c(SSc3cccc4cc(C(=O)NCC(=O)OC)cnc34)cccc2c1", "IC50": "> 2000 nM"}
{"compound": "Cc1cnc2c(S)cccc2c1", "IC50": "1600 nM"}
{"compound": "O=C(CNC(=O)c1cnc2c(SSc3cccc4cc(C(=O)NCC(=O)NCC(=O)OCc5ccccc5)cnc34)cccc2c1)NCC(=O)OCc1ccccc1", "IC50": "> 5000 nM"}
{"compound": "O=C(O)c1ccc2cccc(SSc3cccc4ccc(C(=O)O)nc34)c2n1", "IC50": "> 20000 nM"}
{"compound": "Cc1ccc2cccc(S)c2n1", "IC50": "> 100000 nM"}
{"compound": "Cc1cccc2cccnc12", "IC50": "> 100000 nM"}
{"compound": "Sc1cccc2ncccc12", "IC50": "> 100000 nM"}
{"compound": "O=C(Nc1ncco1)c1cnc2c(SSc3cccc4cc(C(=O)Nc5ncco5)cnc34)cccc2c1", "IC50": "2600 nM"}
{"compound": "Sc1cccc2ccccc12", "IC50": "> 100000 nM"}
{"compound": "O=C(NCc1ccncc1)c1cnc2c(SSc3cccc4cc(C(=O)NCc5ccncc5)cnc34)cccc2c1", "IC50": "200 nM"}
{"compound": "Nc1cccc2cccnc12 [8-AMINOQUINOLINE]", "IC50": "> 100000 nM"}
{"compound": "O=C(O)c1cnc2c(SSc3cccc4cc(C(=O)O)cnc34)cccc2c1", "IC50": "1100 nM"}
{"compound": "Cc1ccnc2c(S)cccc12", "IC50": "5700 nM"}
{"compound": "CSc1cccc2cccnc12", "IC50": "> 100000 nM"}
{"compound": "COC(=O)c1ccc2cccc(SSc3cccc4ccc(C(=O)OC)nc34)c2n1", "IC50": "> 50000 nM"}

----------
# experimental_protocol: Aqueous solubility of the compound
# Type: physicochemical
# applied_conditions: buffer

{"structure": "O=C(NCc1ccco1)c1cnc2c(SSc3cccc4cc(C(=O)NCc5ccco5)cnc34)cccc2c1", "solubility": "Soluble"}
{"structure": "O=C(NCc1ccc(F)cc1)c1cnc2c(SSc3cccc4cc(C(=O)NCc5ccc(F)cc5)cnc34)cccc2c1", "solubility": "Insoluble"}
{"structure": "O=C(NCCc1nccs1)c1cnc2c(SSc3cccc4cc(C(=O)NCCc5nccs5)cnc34)cccc2c1", "solubility": "Soluble"}
{"structure": "O=C(NCc1cccnc1)c1cnc2c(SSc3cccc4cc(C(=O)NCc5cccnc5)cnc34)cccc2c1", "solubility": "Soluble"}
{"structure": "O=C(NCc1ccc2c(c1)OCO2)c1cnc2c(SSc3cccc4cc(C(=O)NCc5ccc6c(c5)OCO6)cnc34)cccc2c1", "solubility": "Insoluble"}
{"structure": "O=C(NCCc1cccs1)c1cnc2c(SSc3cccc4cc(C(=O)NCCc5cccs5)cnc34)cccc2c1", "solubility": "Soluble"}
{"structure": "O=C(NCc1ccc(C(F)(F)F)cc1)c1cnc2c(SSc3cccc4cc(C(=O)NCc5ccc(C(F)(F)F)cc5)cnc34)cccc2c1", "solubility": "Insoluble"}
{"structure": "O=C(Nc1ncco1)c1cnc2c(SSc3cccc4cc(C(=O)Nc5ncco5)cnc34)cccc2c1", "solubility": "Soluble"}
